The measured values listed here are drawn from patent US20110097274A1.

Task for the reader: assign each of the following molecules its reported Ki.
- target: SERT (Rattus norvegicus, UniProt P31652)
- Sequence (P31652 whole entry): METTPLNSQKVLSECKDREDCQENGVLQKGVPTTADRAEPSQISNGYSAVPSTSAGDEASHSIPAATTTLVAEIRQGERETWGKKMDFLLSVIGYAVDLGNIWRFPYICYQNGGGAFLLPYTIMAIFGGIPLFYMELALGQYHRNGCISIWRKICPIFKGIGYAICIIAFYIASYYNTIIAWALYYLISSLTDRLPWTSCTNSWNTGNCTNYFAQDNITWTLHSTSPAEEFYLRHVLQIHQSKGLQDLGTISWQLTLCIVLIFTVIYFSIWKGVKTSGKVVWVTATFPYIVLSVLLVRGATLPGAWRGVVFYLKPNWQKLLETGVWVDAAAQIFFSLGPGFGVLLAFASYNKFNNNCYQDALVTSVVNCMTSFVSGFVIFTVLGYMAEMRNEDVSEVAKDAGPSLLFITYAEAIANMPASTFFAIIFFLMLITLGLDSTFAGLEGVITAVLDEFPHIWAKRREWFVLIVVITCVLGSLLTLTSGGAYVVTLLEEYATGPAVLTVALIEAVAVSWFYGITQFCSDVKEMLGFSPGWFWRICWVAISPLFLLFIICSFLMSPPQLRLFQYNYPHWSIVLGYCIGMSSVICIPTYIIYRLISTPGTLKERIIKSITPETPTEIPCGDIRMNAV
- protocol_summary: In vitro binding assay on rat frontal cortex homogenates using [^3H]paroxetine
- Design: from tissue; host or cells: frontal cortex of male Sprague-Dawley rats, washed membrane homogenate
- applied_conditions: 37° C., mean ± SD, n = 3; read-out: Ki for SERT at 37° C.
Enter your answer as a number in nM; do not include the unit.

Name the recorded Ki for CN(C)Cc1ccccc1Sc1ccc(C#N)cc1N .
1.77

Another molecule to look at: CN(C)Cc1ccccc1Sc1ccc(Br)cc1N
0.33

Another molecule to look at: CN(C)Cc1ccccc1Sc1ccc(CF)cc1N
0.42

Another molecule to look at: CN(C)Cc1ccccc1Sc1ccc(I)cc1N
0.4
